- Read-out: Interleukin-1 alpha (IL1a), IL1A (gene 3552)
- assay protocol: BSK_BE3C_IL1a: BioMAP Diversity Plus: BE3C Assay for Interleukin-1 alpha (IL1a) Biomarker Activity (AID 2283016)
- protocol conditions: primary human bronchial epithelial cells; actives raise or lower the signal
Active and inactive are the calls of the source. Rule for the calls: active = hit-call score of the fitted dose curve at least 0.9, where 1 is the maximum; inactive = score below 0.9.
Write down one outcome, taken from label 1 (active), label 0 (inactive)

molecule	class
OCCNCCO	label 0
OCCOCCOCCO	label 0
CCCCOC(=O)c1ccccc1	label 0

[Q] I'd appreciate the recorded outcome for CCn1nc(C)c2c1C(=O)NCC(c1ccc(O)cc1)=N2 from this test.
[A] label 0

[Q] I'd appreciate the recorded outcome for FC(F)(F)COC(OCC(F)(F)F)OCC(F)(F)F from this test.
[A] label 0

[Q] I'd appreciate the recorded outcome for CCCCCOC(C)=O from this test.
[A] label 0

[Q] I'd appreciate the recorded outcome for O=C(NO)C1(NS(=O)(=O)c2ccc(Oc3ccc(F)cc3)cc2)CCOCC1 from this test.
[A] label 0

[Q] I'd appreciate the recorded outcome for c1ccc2cc3ccccc3cc2c1 from this test.
[A] label 0

[Q] I'd appreciate the recorded outcome for CCCCCCCCCCCCCCCCOS(=O)(=O)O from this test.
[A] label 1

[Q] I'd appreciate the recorded outcome for CCCCCCOC(=O)CC(CC(=O)OCCCCCC)(OC(=O)CCC)C(=O)OCCCCCC from this test.
[A] label 0

[Q] I'd appreciate the recorded outcome for COS(C)(=O)=O from this test.
[A] label 0

[Q] I'd appreciate the recorded outcome for FC(F)C(F)(F)COCC1CO1 (centres undefined) from this test.
[A] label 0

[Q] I'd appreciate the recorded outcome for NNC(=O)c1ccncc1 from this test.
[A] label 0

[Q] I'd appreciate the recorded outcome for Nc1ccn([C@@H]2O[C@H](CO)[C@@H](O)[C@@H]2O)c(=O)n1 from this test.
[A] label 0
